Cited source: patent US20110300138A1

target: T1, human TSH receptor (full length), coated on tubes (human, UniProt P16473 22-764); experiment: inhibition of 125I-K1-70 Fab (competitor) binding to TSHR coated tubes; 0.01 µg/mL in HBD serum pool
T1 construct: TSHR coated tubes as described in WO2004/050708A2; The receptor is full length and held on plastic tubes through a mouse MAb to the TSHR; also called thyroid stimulating hormone receptor
PROPERTY: Inhibition of binding (%)
The response must be a number in % with no trailing unit.

Look over these answered cases.
Exercise: Note down Inhibition of binding (%) recorded for K1-70 IgG (antibody, V domains shown, Human IgG1 lambda purified from hetero-hybridoma supernatant; also called human monoclonal autoantibody to the TSHR with TSH antagonist activity) VH: EVQLVQSGAEVKKPGQSLKISCKASGYSLTDNWIGWVRQKPGKGLEWMGIIYPGDSDTRYSPSFQGQVTISADKSINTAYLQWSSLKASDTAIYYCVGLDWNYNPLRYWGPGTLVTVSS VL: QSVLTQPPSVSAAPGQKVTISCSGSSSDIGSNYVSWYQQFPGTAPKLLIYDNNKRPSAIPDRFSGSKSGTSATLGITGLQTGDEADYYCGTWDSRLGIAVFGGGTQLTVLG
Key: 10.6

Exercise: Provide measured Inhibition of binding (%) value, entry: K1-18 IgG (antibody, V domains shown, Human IgG1 kappa purified from hetero-hybridoma supernatant; also called human monoclonal autoantibody to the TSHR with TSH agonist activity) VH: EVQLVQSGAEVKKPGESLKISCKGSGYSFTNYWIGWVRQMPGKGLEWMGIIYPYDSDTRYSPSFEGQVTISADKSIRTAYLHWSSLKASDTAMYYCVRPRDGSYPYDAFDIWGQGTMVTVSS VL: EIVLTQSPGTLSLSPGERATLSCRASQSVSNNYLAWYQQKPGQAPRLLIYGASSRATGIPDRFSGSGSGTDFTLTISRLEPEDFAVYYCQHCGSSLRAFGQGTKVEIKR
Key: 2.2

More entries:
Exercise: Could you please provide reported Inhibition of binding (%) for K1-70 Fab (Fab, V domains shown) VH: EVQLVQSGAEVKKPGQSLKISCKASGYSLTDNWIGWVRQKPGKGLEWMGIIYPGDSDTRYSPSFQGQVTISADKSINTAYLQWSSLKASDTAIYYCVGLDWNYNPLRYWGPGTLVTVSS VL: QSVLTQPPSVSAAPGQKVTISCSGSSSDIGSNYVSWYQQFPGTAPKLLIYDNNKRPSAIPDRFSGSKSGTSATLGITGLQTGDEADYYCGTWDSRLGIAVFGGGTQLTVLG ? Thanks!
Key: 25.3
